- Tested on: MS2 coat protein
- METHOD NOTES: apparent KD of MS2 coat protein; designed switch direction (-1 OFF switch, 1 ON switch): -1; higher = weaker reporter binding
- CONDITION NOTES: input ligand: FMN 200 uM
Given measured apparent KD of MS2 coat protein, output Met if it is greater than or equal to 70 nM and Not met if not.

Completed entries (count: 8):
Q: Kindly determine if apparent KD of MS2 coat protein recorded for CUAUCUAGAGGAUAUACGAGAUCGAAAGAUCGGCGAUCCCUACAUGAGGAUCACCCAUGUAGAAGGCUAGAUAG [Mod 16 - Jieux - Exclusion 2] (Eterna round: R97, puzzle: Exclusion 2) is above or exactly 70 nM.
Result: Met

Q: Kindly determine if apparent KD of MS2 coat protein recorded for CACAAGCUUGGGCUCGCUGACAUGAGGAUCACCCAUGUCGGAUCAGACACCAAACGUCUCGAUCACGACGGAUCCAG [Eternabot (Original) Solution 7] (Eterna round: R97, puzzle: Sensor, turn-off variant 1) is above or exactly 70 nM.
Result: Not met

Q: Kindly determine if apparent KD of MS2 coat protein recorded for GCGCCAUCGUGAGAUGGCGUAUUUACAUGAGGAUCACCCAUGUAGGAUAUCGAUUGCUUUGCAGUCGAGAAGGGCAUGAUAAGU [JL ENG3 3.78] (Eterna round: R96, puzzle: Exclusion NG 3) is above or exactly 70 nM.
Result: Met

Q: Kindly determine if apparent KD of MS2 coat protein recorded for UAUUAGCAAGCAAGAUCCCACAUGAGGAUCACCCAUGUGCUCGUCUUAUAAGGUACUGUGACGAUAGUCACGGUACC [Mat - Sensor, turn-off var - Eli Mod - D46] (Eterna round: R97, puzzle: Sensor, turn-off variant 1) is above or exactly 70 nM.
Result: Not met

Q: Kindly determine if apparent KD of MS2 coat protein recorded for UACAUGAGGAUCACCCAUGUUUUGUCGUGUAUGGUAUUUAUCUAGGAUAUCAAGUUAUUUGUUUAUGAGAAGGAGAAUAUUAAU [JMF's solution 33] (Eterna round: R96, puzzle: Exclusion NG 3) is above or exactly 70 nM.
Result: Not met

Q: Kindly determine if apparent KD of MS2 coat protein recorded for UCUCUUGGGCAAGGAUAUCCUGCGCGGUUCCGGUUCGUGUCUGUCACAUGAGGAUCACCCAUGUGGGAGAAGGUGCCUGCGGUC [Design 77] (Eterna round: R96, puzzle: Exclusion NG 2) is above or exactly 70 nM.
Result: Not met

Q: Kindly determine if apparent KD of MS2 coat protein recorded for GAAAACGCAGAGGAUAUUUCAGGUCAAAGCUGCAAAGAAGGCUGCACAUGAGGAUCACCCAUGUGGUCAAUAAA [Mod of Quesina 21 - Jieux - Exclusion 6] (Eterna round: R97, puzzle: Exclusion 6) is above or exactly 70 nM.
Result: Met

Q: Kindly determine if apparent KD of MS2 coat protein recorded for ACUUACUGAGGAUAUACUUAGAUUUACAUGAGGAUCACCCAUGUUCCUCUAUGUAUAUAUGUAGAAGGCAGAAGUU [Mat - Exclusion 5 - JL Mod - D49] (Eterna round: R97, puzzle: Exclusion 5) is above or exactly 70 nM.
Result: Met

Please turn your attention to the following entry.
Q: Kindly determine if apparent KD of MS2 coat protein recorded for AAACAAGCAACGAGAUCCCACAUGAGGAUCACCCAUGUCAACUGAAGUUUUAAAUCUUCAGGCUCGUCUUAUAACAA [S_tov1_V1.1] (Eterna round: R97, puzzle: Sensor, turn-off variant 1) is above or exactly 70 nM.
Result: Not met

Values were extracted from the supplement of paper PMC9170038.
